# System: SK-MEL-28
# ASSAY PROCEDURE: NCI tumour cell line growth inhibition, 48 h
Calls of active or inactive are those of the source. Cut-off read from the data, not from the text of the source: active = GI50 up to about 1.1 µM and inactive = higher.
Consider the following compounds; for each one, report its GI50.

In plain terms, NCC[Se][Se]CCN has a documented GI50 of 13.3 µM (inactive)

Input CC1(C)C(=O)OC(n2cc(F)c(=O)[nH]c2=O)C1=O (stereo not given) . Output GI50: > 100 µM (inactive)

Lab book: GI50 of CCNCC(=O)Nc1ccc2c(c1)C(=O)c1ccc(NC(=O)CNCC)cc1C2=O noted as 5.61 µM (inactive)

For Cc1ccc(S(=O)(=O)OC2C3OC(C)(C)OC3OC2C(c2cc(O)c3c(c2O)C(=O)c2ccccc2C3=O)c2cc(O)c3c(c2O)C(=O)c2ccccc2C3=O)cc1 (stereo not given) the compound record lists GI50 as > 10 µM (inactive)

According to the records, this compound C=CC1[C@H]2COC(C)(C)O[C@@H]2CC(=O)C1(C)C (stereo not given in full) displays GI50 of > 100 µM (inactive)

Reported GI50 for O=c1cc(-c2ccccc2)oc2c(-c3cc(Cl)cc4c(=O)cc(-c5ccccc5)oc34)cc(Cl)cc12 was 35 µM (inactive)

// GI50 lookup, compound = O=C1OC(c2ccc([N+](=O)[O-])cc2)=N/C1=C\c1ccc(Cl)cc1 , result: > 100 µM (inactive)

According to the records, this compound Cc1ccc2[nH]c3c(C)c4c(c(C)c3c2c1)CN(C)C=C4 displays GI50 of 1.98 µM (inactive)

GI50 for C=CCCOC(=O)CO[N+](=O)[O-] is > 100 µM (inactive)

Data point: Cc1c(C(C)C)cc(OCCO)cc1C(C)C ; GI50 = 87.9 µM (inactive)
